meta.source: patent US20230192860A1

targetOrTestSystem: T1, hVISTA-ECD 6-His tag (human, UniProt Q9H7M9 33-193)
T1 construct: also called monovalent hVISTA-ECD; human VISTA
T1 sequence (Q9H7M9 other isoform, or with tags, fused parts or gaps limits assumed): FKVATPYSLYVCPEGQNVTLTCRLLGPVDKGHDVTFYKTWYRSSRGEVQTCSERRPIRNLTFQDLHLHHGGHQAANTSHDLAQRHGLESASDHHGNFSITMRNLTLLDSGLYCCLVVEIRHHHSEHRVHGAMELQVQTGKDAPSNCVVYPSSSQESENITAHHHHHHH
assayOverview: SPR, Ab on Protein A, hVISTA analyte, pH 6.45
# reported kon; entries follow
Entry rule: numbers only, all in M⁻¹ s⁻¹.

// known answers, use as guide
binder="P1-070976 (41F11_VH_T28P_Y50W_S55E_D95H_L96E_P97E_Y100E; Vk_A64G) (antibody, V domains shown, They look like Kabat positions on the mature VH, but no numbering scheme is stated; also called P1-070976-11) VH: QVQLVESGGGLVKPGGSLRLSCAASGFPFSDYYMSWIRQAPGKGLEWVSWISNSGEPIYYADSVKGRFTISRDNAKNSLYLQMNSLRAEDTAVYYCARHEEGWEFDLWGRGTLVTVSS VL: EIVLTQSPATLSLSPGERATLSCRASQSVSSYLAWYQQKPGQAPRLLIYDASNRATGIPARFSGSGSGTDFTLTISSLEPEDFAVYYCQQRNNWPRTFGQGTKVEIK" measurename=kon valueunits="M⁻¹ s⁻¹" reportedvalue=90000
binder="P1-068748 (antibody, human IgG1, kappa, V domains shown, also called P1-068748-6) VH: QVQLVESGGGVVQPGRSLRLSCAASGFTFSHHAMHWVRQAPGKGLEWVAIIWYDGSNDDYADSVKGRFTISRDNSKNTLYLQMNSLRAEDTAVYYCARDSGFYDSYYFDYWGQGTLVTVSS VL: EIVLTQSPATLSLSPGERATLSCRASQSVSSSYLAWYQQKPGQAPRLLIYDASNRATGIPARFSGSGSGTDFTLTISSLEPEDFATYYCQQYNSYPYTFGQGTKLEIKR" measurename=kon valueunits="M⁻¹ s⁻¹" reportedvalue=680000
binder="P1-068744 (antibody, human IgG1, kappa, V domains shown, also called P1-068744-7) VH: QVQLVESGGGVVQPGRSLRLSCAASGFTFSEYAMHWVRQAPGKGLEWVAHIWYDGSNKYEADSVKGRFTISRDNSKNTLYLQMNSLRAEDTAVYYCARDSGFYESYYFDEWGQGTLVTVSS VL: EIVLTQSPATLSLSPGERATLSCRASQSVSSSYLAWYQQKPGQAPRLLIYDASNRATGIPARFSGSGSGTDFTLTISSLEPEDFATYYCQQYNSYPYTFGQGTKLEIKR" measurename=kon valueunits="M⁻¹ s⁻¹" reportedvalue=220000

Read the next record carefully.
# query: kon of entry P1-061520 (41F11 VK_A64G) (antibody, V domains shown, also called P1-061520-21; VISTA.4.A64G) VH: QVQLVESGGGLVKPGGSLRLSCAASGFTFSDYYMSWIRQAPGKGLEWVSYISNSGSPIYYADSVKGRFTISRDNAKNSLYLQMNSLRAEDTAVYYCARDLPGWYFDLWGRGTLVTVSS VL: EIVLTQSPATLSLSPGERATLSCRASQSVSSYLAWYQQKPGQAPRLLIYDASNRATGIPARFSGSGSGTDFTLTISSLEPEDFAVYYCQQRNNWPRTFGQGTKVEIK 975000
